# Tested on: Vero E6
# Test name: relative viability EC50 (midpoint between 100% and the lowest measured viability); higher = less toxic
# Condition description: 72 h
Form field: relative viability EC50 (one value per entry).
Readout: relative viability EC50

compound="CN(C)CCCN1c2ccccc2Sc2ccccc21 [promazine]" result_value="> 10 µM"
compound=CCCCN1CCC(CCC(=O)c2cc(Cl)c(N)cc2OC)CC1 result_value="> 10 µM"
compound="CCNC(C)CN1CCc2c(c(=O)oc3ccccc23)C1 (configuration not stated) [CI-923]" result_value="> 10 µM"
compound="C=CCNc1c(O)cc2c(O)c1C[C@@H](C)C[C@H](OC)[C@H](O)[C@@H](C)/C=C(\\C)[C@H](OC(N)=O)[C@@H](OC)/C=C\\C=C(/C)C(=O)N2 [retaspimycin]" result_value="0.815 µM"
compound="CC(=O)OCC(CCn1cnc2cnc(N)nc21)COC(C)=O [famciclovir]" result_value="> 10 µM"
compound="CCN(CC)C(=O)c1ccc(C2=CC3(CCNCC3)Oc3cccc(O)c32)cc1 [ADL5859]" result_value="> 10 µM"
compound="COc1ccc([C@@H]2CC(=O)c3c(O)cc(O[C@@H]4O[C@H](CO)[C@@H](O)[C@H](O)[C@H]4O[C@@H]4O[C@@H](C)[C@H](O)[C@@H](O)[C@H]4O)cc3O2)cc1O [neohesperidin]" result_value="> 10 µM"
compound="Cc1cc(Nc2cc(N3CCN(C)CC3)nc(Sc3ccc(NC(=O)C4CC4)cc3)n2)n[nH]1 [tozasertib]" result_value="> 10 µM"
compound="O=C(/C=C/c1ccc(CN(CCO)CCc2c[nH]c3ccccc23)cc1)NO [dacinostat]" result_value="0.0966 µM"
compound="CC(C)(N)c1cc(C(=O)N[C@@H]2CCc3ccc(Oc4ccnc5c4CCC(=O)N5)cc3C2)cc(C(F)(F)F)c1 [ML786]" result_value="3.06 µM"
compound="O=C(Nc1ccccc1C(=O)Nc1ccc(CCO)cc1)c1ccc([N+](=O)[O-])cc1 [KS-176]" result_value="> 10 µM"
compound="C[C@]12CC[C@H]3[C@@H](CC[C@]4(O)C[C@@H](O)CC[C@]34C=O)[C@@]1(O)CC[C@@H]2C1=CC(=O)OC1 [K-strophanthidin]" result_value="0.151 µM"

* * *

# Lookup of reported cell viability keyed by entry
# Tested on: Calu-3
# Test name: cell viability relative to DMSO; higher = less toxic
# Condition description: 72 h; 100 nM
Readout: cell viability (%)

compound=Nc1c(S(=O)(=O)O)cc(Nc2cccc3ccccc23)c2c1C(=O)c1ccccc1C2=O result_value=91.5
compound=C/C=C(/C(=C/C)c1ccc(O)cc1)c1ccc(O)cc1 result_value=92.4
compound=C[C@H](O)[C@H](O)[C@H]1CNc2nc(N)[nH]c(=O)c2N1 result_value=98.6
compound=Cc1cccc(C)c1NC(=O)CN1CCCC1=O result_value=97.2
compound=Oc1c(I)cc(I)cc1I result_value=104
compound="O=C(O)c1ccc(NC(=O)[C@H](Cc2ccc(O)cc2)NC(=O)c2ccccc2)cc1 [bentiromide]" result_value=104
compound=COc1ncc2cc(C(=O)Nc3cc(C(=O)NCc4cccc(Cl)c4)ccc3Cl)c(=O)[nH]c2n1 result_value=105
compound="CCCCCN(CCCOC)C(=O)[C@@H](CCC(=O)O)NC(=O)c1ccc(Cl)c(Cl)c1 [dexloxiglumide]" result_value=96.4
compound=O=C(/C=C/c1ccc(CN(CCO)CCc2c[nH]c3ccccc23)cc1)NO result_value=56.5
compound=OC[C@@H](O)[C@H]1O[C@@H]2O[C@H](C(Cl)(Cl)Cl)O[C@@H]2[C@H]1O result_value=95.5
compound="NC(=O)NO [hydroxyurea]" result_value=99
compound=CC1(N2CCC(n3c([C@@H]4CCCNC4)nc4ccccc43)CC2)CCCCCCC1 result_value=91.6
compound="CC(C)(C)C(=O)C(Oc1ccc(Cl)cc1)n1ccnc1 (centres undefined)" result_value=98.3
compound="CCCc1cc(C(N)=S)ccn1 [protionamide]" result_value=88.9
compound=O=C(O)c1ccc2cc(-c3ccc(O)c(C45CC6CC(CC(C6)C4)C5)c3)ccc2c1 result_value=93.3
compound=CCOC(=O)[C@H](C)C[C@@H](Cc1ccc(-c2ccccc2)cc1)NC(=O)CCC(=O)O result_value=99.4
compound=CNS(=O)(=O)Cc1ccc2[nH]cc(CCN(C)C)c2c1 result_value=93.6
compound="CCNC(C)CN1CCc2c(c(=O)oc3ccccc23)C1 (centres undefined)" result_value=100
compound="CCOC(=O)C1=C(C)NC(=S)NC1c1cccc(O)c1 (centres undefined)" result_value=95.6
compound=CN1CCN(c2cccc(Nc3nc4c(-c5ccc(S(C)(=O)=O)cc5)cccn4n3)c2)CC1 result_value=91.8
compound="Clc1cccc(C(c2ccc3[nH]cnc3c2)n2ccnc2)c1 (centres undefined)" result_value=93.8
compound=CN1C(=O)CN=C(c2ccccc2)c2cc(Cl)ccc21 result_value=96.6
compound="CCc1ccc(CCOc2ccc(CC3SC(=O)NC3=O)cc2)nc1 (centres undefined)" result_value=95.1
compound=Nc1ncnc2[nH]nc(Nc3ccc(F)cc3)c12 result_value=101
